Organism: Rattus norvegicus
protocol notes: DrugMatrix - Regimen: Daily Repeat
Type: toxicity, organism-based, Sprague-Dawley
Design: regimen Daily Repeat, gender Male, age 6-8 weeks
run conditions: in vivo, po, 0 mg/kg, 120 h, tissue Blood, route oral GAVAGE, dose level Control, time 5 day, vehicle .5 % CMC
What ABSOLUTE MONOCYTE was measured for each of the following?
API: value field is a number in CELLS/uL; no unit string.

**Query** # get_value(readout='ABSOLUTE MONOCYTE', item= Clc1ccc2c(c1)C(N1CCNCC1)=Nc1ccccc1O2 )
**Result** 173

**Query** # get_value(readout='ABSOLUTE MONOCYTE', item= OC(CCN1CCCCC1)(c1ccccc1)C1CCCCC1 (stereo not drawn) )
**Result** 60.5

**Query** # get_value(readout='ABSOLUTE MONOCYTE', item= C[C@](O)(CS(=O)(=O)c1ccc(F)cc1)C(=O)Nc1ccc(C#N)c(C(F)(F)F)c1 [(R)-BICALUTAMIDE] )
**Result** 139.83

###

Species: Rattus norvegicus
protocol notes: DrugMatrix - Regimen: Daily Repeat
Assay type: toxicity, organism-based, Sprague-Dawley
Set-up: regimen Daily Repeat, gender Male, age 6-8 weeks
run conditions: in vivo, po, 1500 mg/kg, 120 h, tissue Plasma, route oral GAVAGE, dose level High, time 5 day, vehicle .5 % CMC
Where ALKALINE PHOSPHATASE equals or exceeds 300 u/L, the correct label is TRUE; where it does not, the label is FALSE.

**Query** Check this compound for ALKALINE PHOSPHATASE at or above 300 u/L: Cc1ccc(S(=O)(=O)NC(=O)NN2CC3CCCC3C2)cc1 (configuration not stated) [GLICLAZIDE]
**Result** TRUE

**Query** Check this compound for ALKALINE PHOSPHATASE at or above 300 u/L: O=C(N[C@H](CO)[C@H](O)c1ccc([N+](=O)[O-])cc1)C(Cl)Cl
**Result** FALSE

**Query** Check this compound for ALKALINE PHOSPHATASE at or above 300 u/L: Cc1cc(=O)n(-c2ccccc2)n1C [ANTIPYRINE]
**Result** TRUE

**Query** Check this compound for ALKALINE PHOSPHATASE at or above 300 u/L: CNC(=C[N+](=O)[O-])NCCSCc1ccc(CN(C)C)o1
**Result** TRUE

**Query** Check this compound for ALKALINE PHOSPHATASE at or above 300 u/L: CO[C@H]1/C=C/O[C@@]2(C)Oc3c(C)c(O)c4c(c3C2=O)C2=NC3(CCN(CC(C)C)CC3)NC2=C(NC(=O)/C(C)=C\C=C\[C@H](C)[C@H](O)[C@@H](C)[C@@H](O)[C@@H](C)[C@H](OC(C)=O)[C@@H]1C)C4=O
**Result** TRUE

###

Organism: Rattus norvegicus
protocol notes: DrugMatrix - Regimen: Daily Repeat
Assay type: toxicity, organism-based, Sprague-Dawley
Parameters: regimen Daily Repeat, gender Male, age 6-8 weeks
run conditions: in vivo, po, 1500 mg/kg, 120 h, tissue Plasma, route oral GAVAGE, dose level High, time 5 day, vehicle .5 % CMC
What ALANINE AMINOTRANSFERASE was measured for each of the following?
API: value field is a number in u/L; no unit string.

**Query** # get_value(readout='ALANINE AMINOTRANSFERASE', item= O=C(N[C@H](CO)[C@H](O)c1ccc([N+](=O)[O-])cc1)C(Cl)Cl )
**Result** 63

**Query** # get_value(readout='ALANINE AMINOTRANSFERASE', item= CO[C@H]1/C=C/O[C@@]2(C)Oc3c(C)c(O)c4c(c3C2=O)C2=NC3(CCN(CC(C)C)CC3)NC2=C(NC(=O)/C(C)=C\C=C\[C@H](C)[C@H](O)[C@@H](C)[C@@H](O)[C@@H](C)[C@H](OC(C)=O)[C@@H]1C)C4=O )
**Result** 114

**Query** # get_value(readout='ALANINE AMINOTRANSFERASE', item= Cc1cc(=O)n(-c2ccccc2)n1C [ANTIPYRINE] )
**Result** 57.67

**Query** # get_value(readout='ALANINE AMINOTRANSFERASE', item= Cc1ccc(S(=O)(=O)NC(=O)NN2CC3CCCC3C2)cc1 (centres undefined) [GLICLAZIDE] )
**Result** 46
